Tested on: 22Rv1 tumor-bearing mice
Assay: Biodistribution in 22Rv1 tumor-bearing mice
Conditions: 30 min p.i., 0.74 MBq, n = 3
Here, each record is paired with measured Uptake Blood, Mean data.
Enter your answer as a number in ID%/g; do not include the unit.

Some solved entries appear below for comparison.
compound	units_symbol	Uptake Blood, Mean
O=C([O-])CN1CCN(CC(=O)[O-])CCN(CC(=O)NCCCCCC(=O)NC(Cc2cnc3ccccc3c2)C(=O)NCCCCC(NC(=O)NC(CCC(=O)O)C(=O)O)C(=O)O)CCN(CC(=O)O)CC1.[68Ga+3] (stereo not shown) [[^68Ga]Ga-PSMA-Q-2]	ID%/g	0.69
O=C([O-])CN1CCN(CC(=O)[O-])CCN(CC(=O)NCCCCC(=O)NC(Cc2cnc3ccccc3c2)C(=O)NCCCCC(NC(=O)NC(CCC(=O)O)C(=O)O)C(=O)O)CCN(CC(=O)O)CC1.[68Ga+3] (stereo not shown) [[^68Ga]Ga-PSMA-Q-1]	ID%/g	1.31
O=C([O-])CN1CCN(CC(=O)[O-])CCN(CC(=O)NCC2CCC(C(=O)NC(Cc3ccc4ccccc4c3)C(=O)NCCCCC(NC(=O)NC(CCC(=O)O)C(=O)O)C(=O)O)CC2)CCN(CC(=O)O)CC1.[68Ga+3] (stereo not shown) [[^68Ga]Ga-PSMA-617, reference compound]	ID%/g	0.58
O=C([O-])CN(CCN(CC(=O)[O-])Cc1cc(CCC(=O)NCCCCCC(=O)NCCCC[C@H](NC(=O)N[C@@H](CCC(=O)O)C(=O)O)C(=O)O)ccc1[O-])Cc1cc(CCC(=O)O)ccc1[O-].[68Ga+3].[OH3+] [[^68Ga]Ga-PSMA-11, reference compound]	ID%/g	0.91
O=C([O-])CN1CCN(CC(=O)[O-])CCN(CC(=O)NCC2CCC(C(=O)NC(Cc3cnc4ccccc4c3)C(=O)NCCCCC(NC(=O)NC(CCC(=O)O)C(=O)O)C(=O)O)CC2)CCN(CC(=O)O)CC1.[68Ga+3] (stereo not shown) [[^68Ga]Ga-PSMA-Q]	ID%/g	1.04

Report Uptake Blood, Mean for O=C([O-])CN1CCN(CC(=O)[O-])CCN(CC(=O)NCC2CCC(C(=O)NC(Cc3ccncc3)C(=O)NCCCCC(NC(=O)NC(CCC(=O)O)C(=O)O)C(=O)O)CC2)CCN(CC(=O)O)CC1.[68Ga+3] (stereo not shown) [[^68Ga]Ga-PSMA-4PY] please.
0.68

Consider the compound shown here: O=C([O-])CN1CCN(CC(=O)[O-])CCN(CC(=O)NCc2ccc(C(=O)NC(Cc3cnc4ccccc4c3)C(=O)NCCCCC(NC(=O)NC(CCC(=O)O)C(=O)O)C(=O)O)cc2)CCN(CC(=O)O)CC1.[68Ga+3] (stereo not shown) [[^68Ga]Ga-PSMA-Q-3] What is its recorded Uptake Blood, Mean?
0.72

----------
Measured Uptake Muscle, Mean values are reported for all entries that follow.
Tested on: 22Rv1 tumor-bearing mice
Test: Biodistribution in 22Rv1 tumor-bearing mice
Settings: 10 min p.i., 0.74 MBq, n = 3
Express it in ID%/g; write the number only.

Some solved entries appear below for comparison.
molecule	assay_result
O=C([O-])CN1CCN(CC(=O)[O-])CCN(CC(=O)NCCCCCC(=O)NC(Cc2cnc3ccccc3c2)C(=O)NCCCCC(NC(=O)NC(CCC(=O)O)C(=O)O)C(=O)O)CCN(CC(=O)O)CC1.[68Ga+3] (stereo not shown) [[^68Ga]Ga-PSMA-Q-2]	0.65
O=C([O-])CN1CCN(CC(=O)[O-])CCN(CC(=O)NCc2ccc(C(=O)NC(Cc3cnc4ccccc4c3)C(=O)NCCCCC(NC(=O)NC(CCC(=O)O)C(=O)O)C(=O)O)cc2)CCN(CC(=O)O)CC1.[68Ga+3] (stereo not shown) [[^68Ga]Ga-PSMA-Q-3]	0.72
O=C([O-])CN1CCN(CC(=O)[O-])CCN(CC(=O)NCC2CCC(C(=O)NC(Cc3ccc4ccccc4c3)C(=O)NCCCCC(NC(=O)NC(CCC(=O)O)C(=O)O)C(=O)O)CC2)CCN(CC(=O)O)CC1.[68Ga+3] (stereo not shown) [[^68Ga]Ga-PSMA-617, reference compound]	0.87

Alright, here's another molecule for you.
Would you mind telling me what Uptake Muscle, Mean value was observed for O=C([O-])CN1CCN(CC(=O)[O-])CCN(CC(=O)NCCCCC(=O)NC(Cc2cnc3ccccc3c2)C(=O)NCCCCC(NC(=O)NC(CCC(=O)O)C(=O)O)C(=O)O)CCN(CC(=O)O)CC1.[68Ga+3] (stereo not shown) [[^68Ga]Ga-PSMA-Q-1] ?
0.81

----------
Tested on: 22Rv1 cells (mild PSMA+)
Test: Cell uptake / binding in 22Rv1 cells
Assay type: cell-based, human
Conditions: 60 min incubation, 37 °C
Description: Cell lines were kindly provided by the stem cell bank of the Chinese Academy of Sciences. The human prostate cancer epithelial cell lines 22Rv1 (mild PSMA+) and PC-3 (with no PSMA receptor) were used to evaluate the specific cell-binding affinity of the radiotracers, and the results were expressed as percentages of injected activity, IA%/10^6. Cell Lines and Culture Condition Cell lines were kindly provided by the stem cell bank, the Chinese Academy of Sciences. […]
quantity_kind: Uptake in 22Rv1 cells (IA%/10^6)
Kindly provide the numeric value in IA%/10^6 only, without the unit symbol.

compound	units_symbol	Uptake in 22Rv1 cells
O=C([O-])CN(CCN(CC(=O)[O-])Cc1cc(CCC(=O)NCCCCCC(=O)NCCCC[C@H](NC(=O)N[C@@H](CCC(=O)O)C(=O)O)C(=O)O)ccc1[O-])Cc1cc(CCC(=O)O)ccc1[O-].[68Ga+3].[OH3+] [[^68Ga]Ga-PSMA-11, reference compound]	IA%/10^6	3.19

Reported Uptake in 22Rv1 cells for O=C([O-])CN1CCN(CC(=O)[O-])CCN(CC(=O)NCC2CCC(C(=O)NC(Cc3ccncc3)C(=O)NCCCCC(NC(=O)NC(CCC(=O)O)C(=O)O)C(=O)O)CC2)CCN(CC(=O)O)CC1.[68Ga+3] (stereo not shown) [[^68Ga]Ga-PSMA-4PY] : what is it?
3.01

Query: Uptake in 22Rv1 cells; subject: O=C([O-])CN1CCN(CC(=O)[O-])CCN(CC(=O)NCc2ccc(C(=O)NC(Cc3cnc4ccccc4c3)C(=O)NCCCCC(NC(=O)NC(CCC(=O)O)C(=O)O)C(=O)O)cc2)CCN(CC(=O)O)CC1.[68Ga+3] (stereo not shown) [[^68Ga]Ga-PSMA-Q-3]
3.31

Query (compound): O=C([O-])CN1CCN(CC(=O)[O-])CCN(CC(=O)NCCCCCC(=O)NC(Cc2cnc3ccccc3c2)C(=O)NCCCCC(NC(=O)NC(CCC(=O)O)C(=O)O)C(=O)O)CCN(CC(=O)O)CC1.[68Ga+3] (stereo not shown) [[^68Ga]Ga-PSMA-Q-2] ; field requested: Uptake in 22Rv1 cells
2.99

For the compound shown here, O=C([O-])CN1CCN(CC(=O)[O-])CCN(CC(=O)NCCCCC(=O)NC(Cc2cnc3ccccc3c2)C(=O)NCCCCC(NC(=O)NC(CCC(=O)O)C(=O)O)C(=O)O)CCN(CC(=O)O)CC1.[68Ga+3] (stereo not shown) [[^68Ga]Ga-PSMA-Q-1] , give the reported Uptake in 22Rv1 cells.
3.38

// lookup Uptake in 22Rv1 cells for O=C([O-])CN1CCN(CC(=O)[O-])CCN(CC(=O)NCC2CCC(C(=O)NC(Cc3ccc4ccccc4c3)C(=O)NCCCCC(NC(=O)NC(CCC(=O)O)C(=O)O)C(=O)O)CC2)CCN(CC(=O)O)CC1.[68Ga+3] (stereo not shown) [[^68Ga]Ga-PSMA-617, reference compound]
4.01

// Uptake in 22Rv1 cells lookup, key: O=C([O-])CN1CCN(CC(=O)[O-])CCN(CC(=O)NCC2CCC(C(=O)NC(Cc3cnc4ccccc4c3)C(=O)NCCCCC(NC(=O)NC(CCC(=O)O)C(=O)O)C(=O)O)CC2)CCN(CC(=O)O)CC1.[68Ga+3] (stereo not shown) [[^68Ga]Ga-PSMA-Q]
3.75

----------
Below, each entry is listed with its recorded Uptake Muscle, Mean.
Test system: 22Rv1 tumor-bearing mice
Test: Biodistribution in 22Rv1 tumor-bearing mice
Conditions: 30 min p.i., 0.74 MBq, n = 3
Respond with the bare value in ID%/g.

compound	units_symbol	assay_result
O=C([O-])CN1CCN(CC(=O)[O-])CCN(CC(=O)NCC2CCC(C(=O)NC(Cc3ccc4ccccc4c3)C(=O)NCCCCC(NC(=O)NC(CCC(=O)O)C(=O)O)C(=O)O)CC2)CCN(CC(=O)O)CC1.[68Ga+3] (stereo not shown) [[^68Ga]Ga-PSMA-617, reference compound]	ID%/g	0.31
O=C([O-])CN1CCN(CC(=O)[O-])CCN(CC(=O)NCC2CCC(C(=O)NC(Cc3ccncc3)C(=O)NCCCCC(NC(=O)NC(CCC(=O)O)C(=O)O)C(=O)O)CC2)CCN(CC(=O)O)CC1.[68Ga+3] (stereo not shown) [[^68Ga]Ga-PSMA-4PY]	ID%/g	0.31
O=C([O-])CN1CCN(CC(=O)[O-])CCN(CC(=O)NCc2ccc(C(=O)NC(Cc3cnc4ccccc4c3)C(=O)NCCCCC(NC(=O)NC(CCC(=O)O)C(=O)O)C(=O)O)cc2)CCN(CC(=O)O)CC1.[68Ga+3] (stereo not shown) [[^68Ga]Ga-PSMA-Q-3]	ID%/g	0.40

Now let's try a different one.
I would be grateful if you could share the reported Uptake Muscle, Mean for O=C([O-])CN1CCN(CC(=O)[O-])CCN(CC(=O)NCCCCC(=O)NC(Cc2cnc3ccccc3c2)C(=O)NCCCCC(NC(=O)NC(CCC(=O)O)C(=O)O)C(=O)O)CCN(CC(=O)O)CC1.[68Ga+3] (stereo not shown) [[^68Ga]Ga-PSMA-Q-1] .
0.18
